The entries below are paired with their reported EC50 (antiviral activity, TZM-bl cells, luciferase).
molecular target: gp120 of viral strain Ca10-3 (CRF01) (HIV, strain Ca10-3 (CRF01)); test: cell-based or functional assay
*1 amine or outer side, *2 acyl side, *3 side chain or, on linkers, in order; H or OH if unused. [ ]: non-standard residue; d: D form. U1 = 4-cyclohexylmethoxy-L-phenylalanine, O=C([C@H](Cc1ccc(OCC2CCCCC2)cc1)N[*:1])[*:2]; Tpa = thiopropionic acid
measured attribute: EC50 (antiviral activity, TZM-bl cells, luciferase) (nM)

{"columns": ["binder", "value reported"],
 "data": [
  ["Tpa-NLHFCQLRCKSLGLLGRCA[dP]T[U1]CACV-NH2 (disulfide (positions not given here)) [M48U1]", 2.7],
  ["M48U1-PS1 (not fully specified; N-terminal gamma-aminobutyric acid (gammaAbu) acylated with 3-thiopropionyl (from SATP); all six Tyr are sulfotyrosine (YSO3); N-terminal Tpa; D-proline at position 21; U1 (4-cyclohexylmethoxy-L-phenylalanine) at position 23; C-terminal amide; Lys11 N-epsilon carries the PEO2-maleimide linker bound to the thiol of the PS1 chain) peptide 1: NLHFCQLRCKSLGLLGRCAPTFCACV peptide 2: SYDYSYDYSYDYS", 0.6],
  ["Tpa-NLHKCQLRCRSLGLLGRCA[dP]T[U1]CACV-NH2 (disulfide (positions not given here)) [mCD4.3]", 3.1],
  ["mCD4.2-PS1 (not fully specified; N-terminal gamma-aminobutyric acid (gammaAbu) acylated with 3-thiopropionyl (from SATP); all six Tyr are sulfotyrosine (YSO3); N-terminal Tpa; D-proline at position 21; U1 (4-cyclohexylmethoxy-L-phenylalanine) at position 23; C-terminal amide; Lys5 N-epsilon carries the PEO2-maleimide linker bound to the thiol of the PS1 chain) peptide 1: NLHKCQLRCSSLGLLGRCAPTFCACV peptide 2: SYDYSYDYSYDYS", 0.12],
  ["Tpa-NLHKCQLRCSSLGLLGRCA[dP]T[U1]CACV-NH2 (disulfide (positions not given here)) [mCD4.2]", 4.73]
]}
